# Tested on: UACC-62 melanoma
# TEST PROTOCOL: NCI-60 one-dose screen, 48 h (100 = growth as untreated, 0 = no growth, -100 = all killed)
# CONDITION CONTEXT: 10 µM unless noted
# Procedure: Growth inhibition of the UACC-62 human tumor cell line is measured as a screen for anti-cancer activity. Cells are grown in 96 well plates and exposed to the test compound for 48 hours. Compounds are tested at a single concentration, which is 10^-5 M for most compounds. The reported endpoint is percent growth (GI% or GIPRCNT), where numbers from 0 - 100% represent growth inhibition, and numbers from -100% - 0 represent cell death. For example, a value of 40 represents 60% growth inhibition. […]
This is part of a sample that, as a whole, favours compounds with a hit. Of some 83,000 tested, about 20% had one in any assay.
Cut-off 90% on growth, inclusive. At or above means 1; below means 0.

[[record]]
compound = "CCc1ccc(CCCC(=O)O)cc1"
category_label = 1

[[record]]
compound = "CCn1cc(C(=O)O)c(=O)c2cc(F)c(N3CCN(CC(=O)Nc4ccc(S(=O)(=O)Nc5nccc(C)n5)cc4)C(C)C3)c(F)c21 (centres undefined)"
category_label = 1

[[record]]
compound = "O=C(/C=C/c1cccs1)Nc1ncc(Cc2ccccc2F)s1"
category_label = 0

[[record]]
compound = "COCCOc1cc2ncnc(N3CCN(c4ncc(S(=O)(=O)N5CCCCC5)cn4)CC3)c2cc1OCCOC"
category_label = 1

[[record]]
compound = "CCCCNC(=O)Oc1ccc(/C(=C(/C)Cc2ccc(OC)cc2)c2ccc(OCCN(CC)CC)cc2)cc1"
category_label = 0

[[record]]
compound = "COc1cc2c(c(OC)c1OC)CCC(c1cccc(C(=O)Nc3cccc(Cl)c3)c1)O2 (centres undefined)"
category_label = 0

[[record]]
compound = "COc1cc2c(cc1OCCCN1CCN(CCCOc3cc4c(cc3OC)C(=O)N3CC(F)(F)C[C@H]3C=N4)CC1)N=C[C@@H]1CC(F)(F)CN1C2=O"
category_label = 0

[[record]]
compound = "COCCOc1cc2ncnc(N3CCN(c4cc(S(C)(=O)=O)c(C)cc4Cl)CC3)c2cc1OCCOC"
category_label = 1


---

# System: HOP-92 NSCLC
# TEST PROTOCOL: NCI-60 one-dose screen, 48 h
# CONDITION CONTEXT: 10 µM unless noted
The panel holds about 83,000 compounds, 20% with a hit somewhere; the sample as a whole holds those more often. The source made the active and inactive calls. Rule for the calls: active = growth percent below 10; inactive = the rest.
Labels: active, inactive

[[record]]
molecule = "CCCc1c(OC(=O)c2ccccc2)nc2[nH]c(=O)sc2c1C"
test_target = "HOP-92 NSCLC"
category_label = "inactive"

[[record]]
molecule = "CC(=O)N1N=C(c2ccc(Nc3nc(Nc4ccccc4)nc(Nc4ccccc4)n3)cc2)CC1c1ccccc1 (stereo not given)"
test_target = "HOP-92 NSCLC"
category_label = "inactive"

[[record]]
molecule = "C=C1C(=O)O[C@H]2[C@H]1CC/C(COC(=O)/C=C\\C(=O)NCc1ccc(Cn3c(=O)sn(CCI)c3=O)cc1)=C\\CC[C@@]1(C)O[C@@H]21"
test_target = "HOP-92 NSCLC"
category_label = "inactive"

[[record]]
molecule = "CSc1nc2ccccc2cc1/C=C1/C=C(c2ccccc2)NC1=O"
test_target = "HOP-92 NSCLC"
category_label = "inactive"

[[record]]
molecule = "CN(C)Cc1ccc(O)c(C(=O)O)c1"
test_target = "HOP-92 NSCLC"
category_label = "inactive"

[[record]]
molecule = "COc1ccc(C2=C(Nc3ccc(C(=O)Nc4ccccc4)cc3)C(=O)N(C)C2=O)cc1"
test_target = "HOP-92 NSCLC"
category_label = "inactive"

[[record]]
molecule = "Cc1ccc(/C=C2\\COc3ccc(O)cc3C2=O)cc1"
test_target = "HOP-92 NSCLC"
category_label = "inactive"

[[record]]
molecule = "CCOC(=O)n1cc(-c2nonc2-c2cn(C(=O)OCC)c3ccc(Br)cc23)c2ccccc21"
test_target = "HOP-92 NSCLC"
category_label = "inactive"

[[record]]
molecule = "O=C(Nc1ccc(OS(=O)(=O)c2ccc(F)cc2)cc1)C1CCCCCC1"
test_target = "HOP-92 NSCLC"
category_label = "inactive"

[[record]]
molecule = "N#Cc1nc(-c2ccc(F)cc2)oc1S(=O)(=O)N1CCOCC1"
test_target = "HOP-92 NSCLC"
category_label = "inactive"

[[record]]
molecule = "CCN(CC)S(=O)(=O)c1ccc(S(=O)(=O)N2CCC[C@@H](C(=O)N3CCN(c4nc(C(C)C)no4)CC3)C2)cc1"
test_target = "HOP-92 NSCLC"
category_label = "inactive"

[[record]]
molecule = "CN1CCN(C(=O)c2ccc(NC(=O)c3cc4c(nn3)NCCN4Cc3cc(Cl)ccc3Cl)cc2)CC1"
test_target = "HOP-92 NSCLC"
category_label = "inactive"

[[record]]
molecule = "Oc1ccc(Cl)cc1/C=N\\NC(=S)N/N=C/c1cc(Cl)ccc1O"
test_target = "HOP-92 NSCLC"
category_label = "inactive"

[[record]]
molecule = "COc1cccc(CNc2ccc3ncnc(Nc4ccc(F)c(Cl)c4)c3c2)c1"
test_target = "HOP-92 NSCLC"
category_label = "inactive"

[[record]]
molecule = "CCOC(=O)c1c(NC(=O)c2ccc(Cl)cc2)sc2c(CN(C)C)c(O)ccc12"
test_target = "HOP-92 NSCLC"
category_label = "active"

